observable: logP
Give a plain numeric answer without units written out.

**Query** Entry CNC(C)Cc1ccc(OC)cc1 (configuration not stated) needs its logP filled in; supply it.
**Result** 1.91

**Query** Output logP of `CCOc1cc2ncnc(Nc3ccc(F)cc3)c2cc1OCC`
**Result** 3.73

**Query** Identify the reported logP for the following entry. `NS(=O)(=O)c1ccncn1`
**Result** -0.2

**Query** Tell me its logP given `CC(=O)N(c1nc(=O)n(C(C)C)c(=O)n1C)C(C)C` as the entry.
**Result** 0.18

**Query** Identify logP associated with the molecule `c1nc2nc[nH]c(N3CCCCCC3)c-2n1`
**Result** 2.53

**Query** Supply measured logP of `COC(=O)c1[nH]cc(-c2ccc(Br)cc2)c1N1CCOCC1` in your reply.
**Result** 3.8

**Query** Read the entry `CC1(C)CC(=O)C=C(N2CCCCC2)C1` and write its reported logP.
**Result** 2.83

###

Where a SMILES comes first, the peptide text is derived from it.
Label met when logP is strictly below 2; otherwise label not met.

**Query** Is the reported logP for `O=C(O)CCCCCON=C(c1ccccc1)c1cncnc1` strictly below 2?
**Result** not met

**Query** A record lists Cc1nc2c3c(c(C(=O)N(C)C)cn2c1C)CCC(c1ccc(F)cc1)O3 (stereo not drawn) . Is its logP below 2?
**Result** not met

**Query** I wonder whether `O=C1CCC(=O)N1c1ccc(Cl)c(Cl)c1` has logP below 2. Can you tell?
**Result** met

**Query** Field: below-cutoff. Rule: recorded logP strictly less than 2. Subject: `COCCOC(=O)C1=C(C)NC(C)=C(C(=O)OCCOC)C1c1cccc2c1OCO2`
**Result** not met

**Query** Record `CCCc1nc(N)nc(N2CCOCC2)n1` : is its logP strictly below 2?
**Result** met

**Query** logP under 2? Item: `COC(=O)c1[nH]cc(-c2ccc(Cl)cc2)c1N1CCOCC1`
**Result** not met

**Query** Input `CC(C)(C)[N+]([O-])=Cc1cccc([N+](=O)[O-])c1` ; condition: logP strictly below 2. Does it hold?
**Result** met

**Query** Please state whether logP is below 2 for CON(C)C(=O)Nc1ccc(OC(C)CC2CCCCC2)cc1 (stereo not drawn)
**Result** not met

**Query** Report whether reported logP is lower than 2 (strictly) for `CCNC(=S)NN=C(c1cccc([N+](=O)[O-])c1)c1ccccn1`
**Result** not met

**Query** I wonder whether CC(C)=CC1C(C(=O)OCc2cccc(C(=O)c3ccccc3)c2)C1(C)C (stereo not drawn) has logP below 2. Can you tell?
**Result** not met

**Query** API: query returns whether the compound falls strictly under 2 in logP. Query: CC1(C)C2CCC(CO)C1C2 (stereo not drawn)
**Result** not met

**Query** Say whether its logP is strictly beneath 2. Entry: ClCC1(CCl)C2C(Cl)C(Cl)C1(CCl)C(Cl)(Cl)C2Cl (stereo not drawn)
**Result** not met

**Query** Dear colleague, could you confirm whether logP of CCC(C)C(NC(=O)C(N)CC(C)C)C(=O)NC(C(=O)O)C(C)O (stereo not drawn) (H-Leu-Ile-Thr-OH; configuration not given here) falls below 2? Thanks.
**Result** met

**Query** Would you kindly verify if logP of COc1ccc(C2Cc3c(OC)cccc3N(CCN(C)C)C(=O)C2C)cc1 (stereo not drawn) is strictly less than 2?
**Result** not met

**Query** Would you kindly verify if logP of CCOP(=O)(NC(C)CC)Oc1cc(C)ccc1[N+](=O)[O-] (stereo not drawn) is strictly less than 2?
**Result** not met

**Query** State whether 2 exceeds logP recorded for `Cc1cc2c(ccc3cc(C)c(=O)oc32)o1` .
**Result** not met

**Query** Does CCCCCCNC1=NS(=O)N=C1NCCSCc1ccc(CN(C)C)o1 (stereo not drawn) have logP strictly under 2?
**Result** not met

**Query** State whether 2 exceeds logP recorded for `Clc1cccc(N2CCN(CCCOn3nnc4ccccc43)CC2)c1` .
**Result** not met

**Query** Report whether reported logP is lower than 2 (strictly) for `COc1ccc(-c2cn3cccnc3n2)c(OC)c1`
**Result** met

**Query** Does the reported logP of CC(C)NCC(O)COc1ccc(-c2nc(-c3cccs3)c[nH]2)cc1 (stereo not drawn) stay below 2?
**Result** not met

**Query** is_below(logP, 2) for `CCN(CC)CCC(=O)Nc1c(C)cc(N)cc1C` ?
**Result** met

**Query** # strict comparison: is reported logP < 2? input = CCCCCOC1CCC(NC(=O)NC23CC4CC(CC(C4)C2)C3)CC1 (stereo not drawn)
**Result** not met

**Query** Please check: logP for `Clc1cc2c(oc3c(Cl)c(Cl)ccc32)c(Cl)c1Cl` , strictly under 2 or not?
**Result** not met

**Query** I wonder whether COc1ccc(C2Cc3cc(C(F)(F)F)ccc3N(CCN(C)C)C(=O)C2NC(C)=O)cc1 (stereo not drawn) has logP below 2. Can you tell?
**Result** not met

**Query** Given the entry `Clc1ccccc1N1CCN(CCn2nc3ccccc3n2)CC1` , would its reported logP be below 2?
**Result** not met

**Query** Hello, is logP of the following compound strictly smaller than 2? `CCOP(=O)(OCC)C(C)(C)[N+]([O-])=Cc1cccnc1`
**Result** met

**Query** Is 2 strictly greater than the compound's reported logP? compound: `CN(C)CCC(c1ccccc1)c1ccccc1`
**Result** not met

**Query** Is 2 strictly greater than the compound's reported logP? compound: `COc1ccc([N+](=O)[O-])c(C)c1`
**Result** not met

**Query** Problem: For the compound Cc1nc2c3c(c(C(=O)NC4CCC4)cn2c1C)CCC(c1ccccc1)O3 (stereo not drawn) , is logP under 2?
**Result** not met

**Query** Field: below-cutoff. Rule: recorded logP strictly less than 2. Subject: CC(C)NCC(O)COc1ccc(-c2ncc[nH]2)cc1 (stereo not drawn)
**Result** met

**Query** Please let me know if `OCCCCCCCNc1[nH]cnc2ncnc1-2` shows logP below 2.
**Result** met

**Query** I'd appreciate it if you could check whether C=CCC1C(=O)N(CCN(C)C)c2ccccc2CC1c1ccc(OC)cc1 (stereo not drawn) has logP smaller than 2.
**Result** not met

**Query** Decide: logP of `COc1ccc2c(c1)CCN(C)C2` strictly below 2?
**Result** not met

**Query** Determine whether this compound shows logP lower than 2 (ties excluded): CC(C)OC(=O)CC(C(=O)OC(C)C)S(=O)(=O)c1ccc([N+](=O)[O-])cc1 (stereo not drawn)
**Result** not met

**Query** For `Nc1nc(NC2CC2)c2ncn([C@@H]3C=C[C@@H](CO)C3)c2n1` , is the recorded logP below the cut-off of 2?
**Result** met

**Query** Dear reviewer, please state whether `Brc1ccc2ccc3ccc(Br)c4ccc1c2c34` has logP strictly beneath 2.
**Result** not met

**Query** State whether 2 exceeds logP recorded for `CC(C)NC(=NC#N)NS(=O)(=O)c1cnccc1Nc1cccc(Cl)c1` .
**Result** not met

**Query** Strictly below 2: is that where logP of O=C(OC1Cc2c(O)cc(O)cc2OC1c1ccc(O)c(O)c1)c1ccccc1 (stereo not drawn) sits?
**Result** not met

**Query** Is the reported logP for CC(C)(C)c1ccc(C(O)CCCN2CCC(C(O)c3ccccc3)CC2)cc1 (stereo not drawn) strictly below 2?
**Result** not met

**Query** Please determine if `C=CCNc1nc(CCC)nc(N2CCOCC2)n1` is below 2 in terms of logP.
**Result** not met

**Query** Lab log: compare recorded logP with 2; is it strictly lower for `CC(C)(C)[N+]([O-])=Cc1ccccc1O` ?
**Result** met

**Query** Regarding `CCCCCI` , kindly confirm whether its logP is beneath 2.
**Result** not met

**Query** For COC(=O)C(C)NP(=O)(OCC1C=CC(n2cc(C)c(=O)[nH]c2=O)O1)Oc1ccc(Br)cc1 (stereo not drawn) , is the recorded logP below the cut-off of 2?
**Result** met

**Query** # strict comparison: is reported logP < 2? input = `NC(=O)c1cccc2nc(N)nc(N)c12`
**Result** met

**Query** Does this compound meet the criterion logP < 2? `CN(C)CCOc1ccc(Cl)cc1`
**Result** not met

**Query** is_below(logP, 2) for COc1ccc(Br)cc1CNC1CCCNC1c1ccccc1 (stereo not drawn) ?
**Result** not met

**Query** Item `O=C(O)CCCON=C(c1ccccc1)c1ncccn1` : logP beneath 2, strictly?
**Result** met
